- assayText: NCI Yeast Anticancer Drug Screen. Data for the rad50 strain (AID 155);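 also: 0% = growth of vehicle-only cultures of the same strain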
- experimentalConditions: S. cerevisiae rad50 strain growth inhibition; at 50.0 µM
Compounds without any hit were thinned out: in the full panel of roughly 79,000, 15% have a hit. Activity calls are given as the source filed them. Rule as the data show it: active = growth inhibition above about 70%; inactive = the rest.
Pick from class 1 for active, class 0 for inactive when you respond.

For orientation, consider the following solved cases.
[
  {
    "compoundString": "CC1CCN(CC(=O)N2c3ccccc3Sc3cc4ccccc4cc32)CC1",
    "classAssignment": "class 0"
  },
  {
    "compoundString": "C/C(=N\\OC(=O)c1ccccc1)[N+](=O)[O-]",
    "classAssignment": "class 1"
  },
  {
    "compoundString": "COC(=O)C(=C(c1ccccc1)c1ccccc1)c1ccccc1",
    "classAssignment": "class 0"
  }
]

QUERY: # outcome recorded in this test, key = O=c1nc(-c2ccccc2)cc(-c2ccccc2O)[nH]1
RESULT: class 0

----------
- assayText: NCI Yeast Anticancer Drug Screen. Data for the cln2 rad14 strain (AID 165);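 also: 0% = growth equal to vehicle treated cultures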
- experimentalConditions: S. cerevisiae cln2 rad14 strain, at 50.0 µM, stronger effect = higher value
The panel holds about 79,000 compounds, 15% with a hit somewhere; the sample as a whole holds those more often.
measuredAttribute: growth inhibition (%)
Number in %, nothing else.

Reference set (4 entries):
[
  {
    "compound": "C[C@]12CC[C@H](O)CC1=CC[C@@H]1C2CC[C@]2(C)NC(=O)CCC12 (stereo partly specified)",
    "measuredAttribute": "growth inhibition",
    "reading": 53
  },
  {
    "compound": "CC(C)(C)C(=O)OC12/C(=N/O)CCCCCC1c1ccccc12 (stereo unspecified)",
    "measuredAttribute": "growth inhibition",
    "reading": 85.3
  },
  {
    "compound": "CN(O)C(=S)c1ccccc1",
    "measuredAttribute": "growth inhibition",
    "reading": 89.6
  },
  {
    "compound": "CCCCc1cc2c(cc1O)CCC1C2CC[C@@]2(C)C1CC[C@@H]2O (stereo partly specified)",
    "measuredAttribute": "growth inhibition",
    "reading": 86.8
  }
]

QUERY: I'd like to know its growth inhibition. The compound in question is c1ccc([P+](c2ccccc2)(c2ccccc2)C2CCCC2)cc1
RESULT: 98.3

QUERY: I'd like to know its growth inhibition. The compound in question is O=C1CCC(Cc2ccc(Cl)cc2Cl)C(=O)N1 (stereo unspecified)
RESULT: -68.7

QUERY: I'd like to know its growth inhibition. The compound in question is O=S(=O)(CC(Br)Br)c1ccccc1
RESULT: 74.8

QUERY: I'd like to know its growth inhibition. The compound in question is CCNC(=S)N/N=C(/C)c1cccc(/C(C)=N\NC(=S)NCC)n1
RESULT: 19.1

QUERY: I'd like to know its growth inhibition. The compound in question is O=C1CCC/C1=C\c1ccccc1
RESULT: 49.3

QUERY: I'd like to know its growth inhibition. The compound in question is O=[N+]([O-])c1ncn(C2OC(CO)C(O)C2O)c1S (stereo unspecified)
RESULT: 66.1

QUERY: I'd like to know its growth inhibition. The compound in question is Cc1ncc(Br)c(C(=O)O)n1
RESULT: 34.2

QUERY: I'd like to know its growth inhibition. The compound in question is CC(C)(c1ccc(OC#N)cc1)c1ccc(OC#N)cc1
RESULT: 61.4

QUERY: I'd like to know its growth inhibition. The compound in question is O=[N+]([O-])c1c(O)cccc1O
RESULT: 98

QUERY: I'd like to know its growth inhibition. The compound in question is O=S1(=O)CC=C1c1ccccc1
RESULT: 73.8

QUERY: I'd like to know its growth inhibition. The compound in question is CCCC/C=C(\CCCNCCCC)[Si](C)(C)C
RESULT: 90.8

QUERY: I'd like to know its growth inhibition. The compound in question is FC(F)(F)c1ccc(Cl)c(NC(=S)SC2CCCCC2)c1
RESULT: 98.5

QUERY: I'd like to know its growth inhibition. The compound in question is COc1ccc(/C=C2\CCCc3ccccc3C2=O)cc1
RESULT: 20

QUERY: I'd like to know its growth inhibition. The compound in question is CC1CCN(SSc2nc3ccccc3s2)CC1
RESULT: 21.4

QUERY: I'd like to know its growth inhibition. The compound in question is O=C(O)c1ccccc1NC(c1ccccc1)c1ccc2cccnc2c1O (stereo unspecified)
RESULT: 93.3

QUERY: I'd like to know its growth inhibition. The compound in question is CC(=O)c1c2c(cc3c1CC1(C3)Cc3cc4c(c(C(=O)O)c3C1)CCCC4)CCCC2 (stereo unspecified) (tested in a mixture with another compound)
RESULT: 97.9

QUERY: I'd like to know its growth inhibition. The compound in question is Cc1cc(S(=O)(=O)c2ccc(Cl)cc2)nc(S(=O)(=O)c2ccc(Cl)cc2)c1C#N
RESULT: 84.7

----------
- assayText: NCI Yeast Anticancer Drug Screen. Data for the sgs1 mgt1 strain (AID 161);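 also: 0% = growth of cultures given vehicle only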
- experimentalConditions: S. cerevisiae sgs1 mgt1 strain, at 5.0 µM (retest, dose inferred, filed as 0.5), stronger effect = higher value
This is part of a sample that, as a whole, favours compounds with a hit. Of some 79,000 tested, about 15% had one in any assay.
Documented growth inhibition across a set of compounds
Number in %, nothing else.

Reference set (3 entries):
[
  {
    "compound": "COc1ccc(OC(C)=O)c2c1CCC=CC2=O",
    "growth inhibition / %": 18
  },
  {
    "compound": "CCCCCCCCCCCCOC(=O)CC1CC(C(C)=O)C1(C)C (stereo unspecified)",
    "growth inhibition / %": 0
  },
  {
    "compound": "c1ccc2nc3ccccc3nc2c1",
    "growth inhibition / %": -5
  }
]

QUERY: I'd like to know its growth inhibition. The compound in question is CC(=O)Oc1ccc(Cl)cc1Cc1cc(Cl)ccc1OC(C)=O
RESULT: 7

QUERY: I'd like to know its growth inhibition. The compound in question is Clc1ccc(-c2nnn3ccccc23)cc1
RESULT: -3

QUERY: I'd like to know its growth inhibition. The compound in question is O=c1c2ccccc2sc2c(CO)ccc(NCCN3CCCCC3)c12
RESULT: -9

QUERY: I'd like to know its growth inhibition. The compound in question is COC(=O)c1ccc(NN)cc1
RESULT: 3

QUERY: I'd like to know its growth inhibition. The compound in question is O=Cc1c(Cn2ccnc2)c2cc([N+](=O)[O-])ccc2n1Cc1ccccc1
RESULT: 6

QUERY: I'd like to know its growth inhibition. The compound in question is CC(Br)C(=O)c1ccc2cc(Cl)c3ccccc3c2c1 (stereo unspecified)
RESULT: 7

QUERY: I'd like to know its growth inhibition. The compound in question is Cc1cc2c(c([N+](=O)[O-])c1C)C(=O)C(Br)=C(N)C2=O
RESULT: 96

QUERY: I'd like to know its growth inhibition. The compound in question is Nc1c(C(=O)O)cccc1[N+](=O)[O-]
RESULT: -1

QUERY: I'd like to know its growth inhibition. The compound in question is CCOC(=O)/C(=C\c1cccc(C(F)(F)F)c1)P(=O)(OCC)OCC
RESULT: 3

QUERY: I'd like to know its growth inhibition. The compound in question is CN(Cc1ccccc1)CC(O)c1cc(-c2ccc(Cl)cc2)nc2ccccc12 (stereo unspecified)
RESULT: 24

----------
- assayText: NCI Yeast Anticancer Drug Screen. Data for the bub3 strain (AID 167)
- experimentalConditions: S. cerevisiae bub3 mutant strain, at 5.0 µM (retest, dose inferred, filed as 0.5), stronger effect = higher value
About 79,000 compounds went through this panel and 15% of them were active in at least one assay; those are over-represented in the sample as a whole.
Documented growth inhibition across a set of molecules
Number in %, nothing else.

Reference set (4 entries):
[
  {
    "molecule": "CCNC(=S)N/N=C(/C)c1cccc(/C(C)=N\\NC(=S)NCC)n1",
    "reading": 18
  },
  {
    "molecule": "O=c1c2cc(Br)ccc2ncn1COCc1ccccc1",
    "reading": 15
  },
  {
    "molecule": "Cc1ccsc1/C=N/Nc1cc(C)c2cccc(C)c2n1",
    "reading": -12
  },
  {
    "molecule": "CC1(C)OC2C(COC(c3ccccc3)(c3ccccc3)c3ccccc3)OC(n3cnc4c(=O)[nH]cnc43)C2O1 (stereo unspecified)",
    "reading": 30
  }
]

QUERY: I'd like to know its growth inhibition. The molecule in question is C=CCOc1ccccc1C(OCC)OCC
RESULT: 7

QUERY: I'd like to know its growth inhibition. The molecule in question is Clc1ccc2ns[s+]c2c1
RESULT: 26
